# TGI listing for each entry below
- Test system: NCI/ADR-RES ovarian
- PROTOCOL_SUMMARY: NCI tumour cell line growth inhibition, 48 h
OBSERVATION_TYPE: TGI

1) Cn1cc(-c2nonc2-c2cn(C)c3ccc(F)cc23)c2ccccc21    > 58.3 µM
2) C=CCN1C(N)=C(C#N)C(C#N)(C#N)C1CCC (stereo unspecified)    > 100 µM
3) Nc1ccc(Cc2ccc(N=Cc3ccc(OCc4cccc(COc5ccc(C=Nc6ccc(Cc7ccc(N)cc7)cc6)cc5)n4)cc3)cc2)cc1    > 100 µM
4) Nc1cccc(C2CCCc3c2[nH]c2ccccc32)c1 (stereo unspecified)    38.8 µM
5) COc1ccc2c(C)cc(C)nc2n1    > 100 µM
6) c1ccc(Cc2cc(-c3ccccc3)n[nH]2)cc1    49.4 µM
7) Cn1cc(C2=C(Oc3ccccc3)C(=O)NC2=O)c2ccccc21    > 25 µM
8) O=C1/C(=C\c2ccc(Cl)cc2)CCOc2c1ccc1ccccc21    62.8 µM
9) CCOC(=O)Nc1cc(NC(/C=N/NC(C)=O)C(=O)OCC)c(OC)cc1NC(C)=O (stereo unspecified)    > 100 µM
10) c1cc2ccc3cc4ncccc4c4ccc(c1)c2c34    > 100 µM
11) CCCCCCCCCCCCCCCCCCOP1(=O)OCCO1    > 100 µM
12) C/C(=C1\SC(=NCc2cccs2)NC1=O)c1ccc2ncccc2c1    > 25 µM
13) O=c1oc2ccc(Br)cc2c(=O)n1-c1ccc(Br)cc1F    4.33 µM
14) CSc1nc(N)cc(Oc2ccc(-c3nc(Nc4cccc(C(F)(F)F)c4)n[nH]3)cc2)n1    7.45 µM
15) Cc1cc(C)c2c(c1)CC1(Cc3c(ccc(C)c3C)C1=O)C2=O (stereo unspecified)    > 100 µM
16) O=C(OCc1nc2nc(Cl)nc(N3CCOCC3)c2[nH]1)n1ccnc1    8.84 µM
17) COC(=O)c1cc2/c(=N/O)c3ccccc3sc2o1    > 100 µM
18) COc1cccc2c(=O)c3c(n(C)c12)OC(C(C)C)C3 (stereo unspecified)    > 100 µM
19) CC(C)C1(Cl)CCC2C3(C)CCCC(C)(C(=O)O)C3CC(Cl)C2(Cl)C1Cl (stereo unspecified)    > 100 µM
20) COc1cccc(CC2C(=O)N=C(NC(C)=O)N2C)c1OC(C)=O (stereo unspecified)    > 100 µM
21) CCNCC(O)COc1ccc2c(c1)[n+]([O-])nc(N)[n+]2[O-] (stereo unspecified)    > 100 µM
